# Target Desc: full-length human Hpk1 (Homo sapiens)
# Construct: A recombinant fusion protein consisting of full-length human Hpk1; GST (N)
# Assay Explanation: HPK1 kinase assay (ADP Glo Kinase Assay)
# Type: biochemical
# Condition Parameters: full-length human GST-Hpk1, ADP Glo, 75 μM ATP; read-out: Hpk1 biochemical (pIC50) (converted)
# Method: Pharmacological Part HPK1 Kinase Assay A recombinant fusion protein consisting of full-length human Hpk1 with an N-terminal Glutatione S-transferase (GST) tag was produced in a baculovirus/insect cell expression system. GST-Hpk1 protein was purified from cell lysates by glutathione sepharose affinity chromatography. Kinase inhibition was determined using the ADP Glo™ Kinase Assay kit (Promega, V9101). […]
Measurement Type: IC50 (nM)
Answers are plain numbers, in nM.

Record excerpt, results attached:
| Compound | IC50 [nM] |
| --- | --- |
| Nc1ncc(-c2ccc(C3CCOCC3)c([C@@H]3CCCN3)c2)cc1-c1ccncc1Cl [Co. 30] | 28.2 |
| CN(C)Cc1cc(-c2cnc(N)c(C(=O)NCCO)c2)ccc1C1CCOCC1 [Co. 110] | 89.1 |
| Nc1ncc(-c2ccc(C3CCOCC3)c([C@@H]3CSCCN3)c2)cc1-c1ccnc(F)c1 (single isomer, unassigned) [Co. 103a] | 7.76 |
| Nc1ncc(-c2cnc(N3CCOCC3)c(C3CCCN3)c2)cc1-c1ccncc1 (centres unmarked) [Co. 12] | 112 |

Respectfully, I request IC50 for each entry included below.
1. Nc1ncc(-c2ccc(C3CCOCC3)c([C@@H]3CCCN3)c2)cc1-c1ccnc(F)c1Cl [Co. 35]
2. Nc1ncc(-c2ccc(C3CCOCC3)c([C@@H]3CCCN3)c2)cc1-c1cc(F)ncc1Cl [Co. 32]
3. Nc1ncc(-c2ccc(C3CCOCC3)c([C@@H]3CCCN3)c2)cc1-c1ccnc(F)c1 [Co. 1]
4. N#Cc1ccc(-c2cnc(N)c(-c3ccnc(F)c3)c2)cc1[C@@H]1CCCN1 [Co. 60]
5. Nc1ncc(-c2ccc(C3CCOCC3)c([C@@H]3CCCN3)c2)cc1-c1ccc(=O)[nH]c1 [Compound 56]
6. Nc1ncc(-c2ccc(C3CCOCC3)c([C@H]3COCCN3)c2)cc1-c1ccncc1 [Co. 80b]
7. Cc1cc(-c2cc(-c3ccc(C4CCOCC4)c(CN(C)C)c3)cnc2N)ccn1 [Co. 70]
8. Nc1ncc(-c2ccc(C3CCOCC3)c([C@@H]3COCCN3)c2)cc1-c1ccncc1 [Co. 80a]

[8.13, 28.2, 7.59, 251, 35.5, 3720, 115, 14.5]

Respectfully, I request IC50 for each entry included below.
1. N#Cc1ccc(-c2cc(-c3ccc(C4CCOCC4)c([C@@H]4CCCN4)c3)cnc2N)cc1 [Co. 36]
2. CC(C)(C#N)c1cc(-c2cc(-c3ccc(C4CCOCC4)c([C@@H]4CCCN4)c3)cnc2N)ccn1 [Co. 29]
3. COc1cc(-c2ccc(C3CCOCC3)c([C@@H]3COCCN3)c2)cnc1N [Co. 87]
4. Nc1ncc(-c2ccc(C3CCOCC3)c([C@@H]3CCCN3)c2)cc1-c1cnn(CCO)c1 [Co. 21]
5. C[C@H]1CCN[C@@H]1c1cc(-c2cnc(N)c(-c3ccncc3)c2)ccc1C1CCOCC1 (racemic) [Co. 9]
6. CS(=O)(=O)N1CC=C(c2ccc(-c3cnc(N)c(-c4ccnc(F)c4)c3)cc2[C@@H]2CCCN2)CC1 [Co. 46]
7. Cn1cc(-c2nc(-c3ccc(C4CCOCC4)c([C@@H]4CCCN4)c3)cnc2N)cn1 [Co. 41]

7.94
38
47.9
18.6
42.7
35.5
4.57

Respectfully, I request IC50 for each entry included below.
1. Nc1ncc(-c2ccc(C3CCOCC3)c([C@@H]3COCCN3)c2)cc1F [Co. 88]
2. N#Cc1cc(-c2cc(-c3ccc(C4CCOCC4)c([C@@H]4CCCN4)c3)cnc2N)ccn1 [Co. 61]
3. C[C@H]1CN[C@H](c2cc(-c3cnc(N)c(-c4cnn(C)c4)n3)ccc2C2CCOCC2)CO1 [Co. 90]
4. Nc1ncc(-c2ccc(C3CCOCC3)c([C@@H]3CC4(CC4)CN3)c2)cc1-c1ccncc1 (single isomer, unassigned) [Co. 8a]
5. Nc1ncc(-c2ccc(C3CCOCC3)c([C@@H]3CCCN3)c2)cc1C1CCS(=O)(=O)CC1 [Co. 102]
6. CN(C)Cc1cc(-c2cnc(N)c(-c3ccnc(N4CCNCC4)c3)c2)ccc1C1CCOCC1 [Co. 67]
7. Nc1ncc(-c2ccc(C3CCOCC3)c([C@@H]3CCCN3)c2)cc1-c1cc(F)ncc1F [Co. 31]
8. [2H]c1cc(-c2cc(-c3ccc(C4CCOCC4)c([C@@H]4CCCN4)c3)cnc2N)cc([2H])n1 [Co. 65]

[112, 34.7, 35.5, 6.31, 295, 46.8, 20.4, 26.9]

----------
# Target Desc: full-length human Hpk1 (Homo sapiens)
# Construct: A recombinant fusion protein consisting of full-length human Hpk1; GST (N)
# Assay Explanation: HPK1 kinase assay (ADP Glo Kinase Assay)
# Assay type: biochemical
# Condition Parameters: full-length human GST-Hpk1, ADP Glo, 75 μM ATP; read-out: Hpk1 biochemical (pIC50) (converted)
Provide the recorded IC50 for the entries that follow.

Record excerpt, results attached:
| Molecule | Target Desc | Recorded Result |
| --- | --- | --- |
| Nc1ncc(-c2ccc(C3CCOCC3)c([C@@H]3CCCN3)c2)cc1-c1ccnc(C(F)F)c1 | full-length human Hpk1 (Homo sapiens) | 17.4 nM |
| CO[C@H]1CC[C@@H](c2ccc(-c3cnc(N)c(-c4ccnc(F)c4)c3)cc2[C@@H]2CCCN2)CC1 | full-length human Hpk1 (Homo sapiens) | 18.2 nM |
| Nc1ncc(-c2ccc(C3CCOCC3)c([C@@H]3COCCN3)c2)cc1Cl | full-length human Hpk1 (Homo sapiens) | 38 nM |

Respectfully, I request IC50 for each entry included below.
1. CS(=O)(=O)n1cc(-c2cc(-c3ccc(C4CCOCC4)c([C@@H]4CCCN4)c3)cnc2N)cn1
2. Nc1ncc(-c2ccc(C3CCOCC3)c([C@@H]3CCCN3)c2)cc1-c1cnn2c1CCCC2

1. 4.27 nM
2. 17.8 nM

Respectfully, I request IC50 for each entry included below.
1. Nc1ncc(-c2ccc(C3CCOCC3)c([C@@H]3CC(F)(F)CN3)c2)cc1-c1ccnc(F)c1 (single isomer, unassigned)
2. Nc1ncc(-c2ccc(C3CCOCC3)c([C@@H]3CCCN3)c2)cc1-c1ccnc(Cl)c1
3. CN(C)Cc1cc(-c2cnc(N)c(-c3ccnc(NCCO)c3)c2)ccc1C1CCOCC1

1. 77.6 nM
2. 15.8 nM
3. 56.2 nM

----------
# Target Desc: full-length human Hpk1 (Homo sapiens, UniProt Q92918)
# Construct: A recombinant fusion protein consisting of full-length human Hpk1; GST (N)
# Sequence (Q92918 whole entry, the tested form may be a part): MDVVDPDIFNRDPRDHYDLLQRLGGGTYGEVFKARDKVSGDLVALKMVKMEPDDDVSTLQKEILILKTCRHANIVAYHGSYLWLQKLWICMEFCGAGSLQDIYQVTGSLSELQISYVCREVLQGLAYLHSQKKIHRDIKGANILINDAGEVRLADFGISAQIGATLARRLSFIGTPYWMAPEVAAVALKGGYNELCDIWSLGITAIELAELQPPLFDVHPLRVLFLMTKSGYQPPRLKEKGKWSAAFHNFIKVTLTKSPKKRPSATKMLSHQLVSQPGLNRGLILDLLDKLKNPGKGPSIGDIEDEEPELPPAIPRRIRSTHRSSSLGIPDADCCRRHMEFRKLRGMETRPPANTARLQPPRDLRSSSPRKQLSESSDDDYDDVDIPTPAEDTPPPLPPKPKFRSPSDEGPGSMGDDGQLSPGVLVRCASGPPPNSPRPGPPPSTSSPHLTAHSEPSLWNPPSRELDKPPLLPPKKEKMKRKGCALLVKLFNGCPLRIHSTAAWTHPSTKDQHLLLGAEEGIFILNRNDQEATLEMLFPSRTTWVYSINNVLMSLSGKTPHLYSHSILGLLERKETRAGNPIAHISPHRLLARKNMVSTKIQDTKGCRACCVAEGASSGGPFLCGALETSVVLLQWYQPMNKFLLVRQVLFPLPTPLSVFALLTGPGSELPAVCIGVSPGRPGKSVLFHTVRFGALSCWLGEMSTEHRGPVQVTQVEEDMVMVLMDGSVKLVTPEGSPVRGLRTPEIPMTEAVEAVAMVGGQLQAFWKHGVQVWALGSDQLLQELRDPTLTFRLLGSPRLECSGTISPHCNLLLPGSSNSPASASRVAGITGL
# Assay Explanation: HPK1 kinase assay (ADP Glo Kinase Assay)
# Format: biochemical
# Condition Parameters: full-length human GST-Hpk1, ADP Glo, 75 μM ATP; read-out: Hpk1 biochemical (pIC50) (converted)
Provide the recorded IC50 for the entries that follow.
Give bare numbers, in nM.

| Compound | IC50 / nM |
| --- | --- |
| Nc1ncc(-c2ccc(C3CCOCC3)c([C@@H]3CCCN3)c2)cc1-c1ccncn1 | 2.04 |
| Nc1ncc(-c2ccc(N3CCOCC3)c([C@@H]3CCCN3)c2)cc1-c1ccnc(F)c1 | 41.7 |
| Nc1ncc(-c2ccc(C3CCOCC3)c([C@@H]3C[S@+]([O-])CCN3)c2)cc1-c1ccnc(F)c1 (single isomer, unassigned) [Co. 15b] | 200 |
| Nc1ncc(-c2ccc(C3CCOCC3)c([C@H]3COCCCN3)c2)cc1-c1ccncc1 (single isomer, unassigned) [Co. 93b] | 18.6 |
| C[C@@H]1CN[C@@H](c2cc(-c3cnc(N)c(-c4ccnc(F)c4)c3)ccc2C2CCOCC2)CO1 | 1950 |

Respectfully, I request IC50 for each entry included below.
1. Nc1ncc(-c2ccc(C3CCOCC3)c([C@@H]3CCCN3)c2)cc1-c1cccnc1
2. CC1(C)COc2ncc(-c3cc(-c4ccc(C5CCOCC5)c([C@@H]5CCCN5)c4)cnc3N)cc21

[42.7, 8.91]

----------
Provide the recorded IC50 for the entries that follow.
# Target Desc: full-length human Hpk1 (Homo sapiens)
# Construct: A recombinant fusion protein consisting of full-length human Hpk1; GST (N)
# Assay Explanation: HPK1 kinase assay (ADP Glo Kinase Assay)
# Type: biochemical
# Condition Parameters: full-length human GST-Hpk1, ADP Glo, 75 μM ATP; read-out: Hpk1 biochemical (pIC50) (converted)
# Description: Pharmacological Part HPK1 Kinase Assay A recombinant fusion protein consisting of full-length human Hpk1 with an N-terminal Glutatione S-transferase (GST) tag was produced in a baculovirus/insect cell expression system. GST-Hpk1 protein was purified from cell lysates by glutathione sepharose affinity chromatography. Kinase inhibition was determined using the ADP Glo™ Kinase Assay kit (Promega, V9101). […]
Answers are plain numbers, in nM.

Record excerpt, results attached:
| Chemical Smiles | Measurement Type | Scale Unit | Recorded Result |
| --- | --- | --- | --- |
| COc1cnccc1-c1cc(-c2ccc(C3CCOCC3)c([C@@H]3CCCN3)c2)cnc1N | IC50 | nM | 13.2 |
| Nc1ncc(-c2ccc(C3CCOCC3)c([C@@H]3CCCN3)c2)cc1-c1ccc(F)cc1 | IC50 | nM | 31.6 |
| Nc1ncc(-c2ccc(C3CCOCC3)c([C@@H]3CCCN3)c2)cc1-c1ccncc1F | IC50 | nM | 10.2 |

Give recorded IC50 with full-length human Hpk1 (Homo sapiens) for the following compound: `CN(Cc1cc(-c2cnc(N)c(-c3ccncc3)c2)ccc1C1CCOCC1)C1CC1`
178
